- Test system: Male CF1 mice
- protocol-text: Mouse antiphenylquinone writhing (PQW) test
- Assay type: in vivo
- recorded-conditions: Mus musculus, sc, 0.5 h; Table 3; s.c.; phenylquinone 1.25 mg/kg i.p.; observation beginning 30 min after injection of test compound; read-out: Mouse PQW ED₅₀ (Mg/Kg) S.C
- Protocol: The anti-pheylquinone writhing (PQW) test modified from the methods of Siegmund et al. (Proc. Soc. Exp. Biol. Med. 95: 729-731, 1957) and Blumberg et al. (Proc. Exp. Biol. Med. 118: 763-767, 1965) was used to assess analgesia in mice. […] Analgetic activity was calculated as the percentage of mice failing to respond to the phenylquinone challenge dose. […]
Classification by ED50 follows these ranges: class A (below 10 mg/kg), class B (10 mg/kg to below 30 mg/kg), class C (30 mg/kg or more)

molecule: CC(O)C1(c2cccc(Cl)c2)CCCN(C)CC1 (centres unmarked)
group-label: class A
--
molecule: CCN1CCC(c2cccc(Cl)c2)(C(C)O)CC1 (centres unmarked)
group-label: class C
--
molecule: COC(C)C1(c2cccc(Cl)c2)CCN(C)CC1 (centres unmarked)
group-label: class A
--
molecule: Cc1ccccc1C1(C(C)O)CCN(C)CC1 (centres unmarked)
group-label: class C
--
molecule: CN1CCC(c2cccc3ccccc23)(C(C)(C)O)CC1
group-label: class B
--
molecule: CN1CCC(c2csc3ccccc23)(C(C)(C)O)CC1
group-label: class A
--
molecule: C=CCN1CCC(c2cccc(Cl)c2)(C(C)(C)O)CC1
group-label: class B
--
molecule: CC(O)C1(c2ccc(F)cc2)CCN(C)CC1 (centres unmarked)
group-label: class C
--
molecule: CCC(O)C1(c2cccc(Cl)c2)CCN(C)CC1 (centres unmarked)
group-label: class B

====

Examples of molecules with documented ED50 follow.
- Tested on: Male CF1 mice
- protocol-text: Mouse antiphenylquinone writhing (PQW) test
- Assay type: in vivo
- recorded-conditions: Mus musculus, sc, 0.5 h; Table 3; s.c.; phenylquinone 1.25 mg/kg i.p.; observation beginning 30 min after injection of test compound; read-out: Mouse PQW ED₅₀ (Mg/Kg) S.C
reported-property: ED50 (mg/kg)

molecule: CC(=O)OC(C)C1(c2cccc(Cl)c2)CCN(C)CC1 (centres unmarked) [Example 66]
reported-property: ED50
scale-unit: mg/kg
limit-operator: =
data-value: 13

molecule: Cc1ccc(C2(C(C)O)CCN(C)CC2)cc1 (centres unmarked) [Example 14]
reported-property: ED50
scale-unit: mg/kg
limit-operator: =
data-value: 54

molecule: CC(O)C1(c2cccc(Br)c2)CCN(C)CC1 (centres unmarked) [Example 10]
reported-property: ED50
scale-unit: mg/kg
limit-operator: =
data-value: 6.5

molecule: CC(O)C1(c2cccc(F)c2)CCN(C)CC1 (centres unmarked) [Example 5]
reported-property: ED50
scale-unit: mg/kg
limit-operator: =
data-value: 24

molecule: COc1ccc(C2(C(C)O)CCN(C)CC2)cc1 (centres unmarked) [Example 17]
reported-property: ED50
scale-unit: mg/kg
limit-operator: >
data-value: 81

molecule: CC(O)C1(c2csc3ccccc23)CCN(C)CC1 (centres unmarked) [Example 29]
reported-property: ED50
scale-unit: mg/kg
limit-operator: =
data-value: 6.8

molecule: Cc1cccc(C2(C(C)O)CCN(C)CC2)c1 (centres unmarked) [Example 13]
reported-property: ED50
scale-unit: mg/kg
limit-operator: =
data-value: 4.7

molecule: CN1CCC(c2ccsc2)(C(C)(C)O)CC1 [Example 44]
reported-property: ED50
scale-unit: mg/kg
limit-operator: =
data-value: 6.5

molecule: CC(=O)OC(C)(C)C1(c2cccc(Cl)c2)CCN(C)CC1 [Example 67]
reported-property: ED50
scale-unit: mg/kg
limit-operator: =
data-value: 1.8

molecule: CCCC(O)C1(c2cccc(Cl)c2)CCN(C)CC1 (centres unmarked) [Example 36]
reported-property: ED50
scale-unit: mg/kg
limit-operator: =
data-value: 67

molecule: CC(O)C1(c2ccc(Cl)c(Cl)c2)CCN(C)CC1 (centres unmarked) [Example 9]
reported-property: ED50
scale-unit: mg/kg
limit-operator: >
data-value: 81
